Reference for the values: patent US20090018106A1

# Test summary: Single intravenous dose escalation of P5P, plasma pharmacokinetics (Examples Two and Three)
# Type: in vivo, human
# Stated conditions: Group 1, P5P 1 mg/kg single iv; plasma PAL; mean
Measured quantity: Kel (h⁻¹)
Number only, in h⁻¹; omit the unit.

// Kel lookup, key: `Cc1ncc(CO)c(C=O)c1O`
0.198

====

# Test summary: Single intravenous dose escalation of P5P, plasma pharmacokinetics (Examples Two and Three)
# Assay type: in vivo, human
# Stated conditions: both sexes, human, plasma, iv, 20 mg/kg, Group 4, P5P 20 mg/kg single iv; plasma PAL; mean
Measured quantity: MRT (h)
Number in h, nothing else.

Entry under review: `Cc1ncc(CO)c(C=O)c1O` . Reported MRT?
3.98

====

# Test summary: Single intravenous dose escalation of P5P, plasma pharmacokinetics (Examples Two and Three)
# Format: in vivo, human
# Stated conditions: both sexes, human; Group 1, P5P 1 mg/kg single iv; plasma PA; mean; read-out: AUC(0-t)
Measured quantity: AUC(0-t) (ng·h/mL)
Give your result in ng·h/mL as a bare value.

# lookup: AUC(0-t) of `Cc1ncc(CO)c(C(=O)O)c1O`
1500

====

# Test summary: Single intravenous dose escalation of P5P, plasma pharmacokinetics (Examples Two and Three)
# Assay type: in vivo, human
# Stated conditions: both sexes, human, plasma, iv, 10 mg/kg, Group 3, P5P 10 mg/kg single iv; plasma P5P; mean
Measured quantity: MRT (h)
Number only, in h; omit the unit.

What value of MRT has been reported for the following molecule? Cc1ncc(COP(=O)(O)O)c(C=O)c1O [P5P, Pyridoxal 5′-phosphate, reference compound]
3.11

====

# Test summary: Single intravenous dose escalation of P5P, plasma pharmacokinetics (Examples Two and Three)
# Assay type: in vivo, human
# Stated conditions: both sexes, human, plasma, iv, 10 mg/kg, Group 4, dose 10 mg/kg, single iv; plasma P5P; mean; read-out: T½ (converted)
Measured quantity: half-life (h)
Report as a plain number; the unit h is understood.

Look up half-life: Cc1ncc(COP(=O)(O)O)c(C=O)c1O [P5P, Pyridoxal 5′-phosphate, reference compound]
5.03

====

# Test summary: Single intravenous dose escalation of P5P, plasma pharmacokinetics (Examples Two and Three)
# Type: in vivo, human
# Stated conditions: both sexes, human, plasma, iv, 20 mg/kg, Group 4, P5P 20 mg/kg single iv; plasma PA; mean
Measured quantity: MRT (h)
Just the number please, in h, no unit attached.

Find the recorded MRT belonging to `Cc1ncc(CO)c(C(=O)O)c1O` and report it.
4.13

====

# Test summary: Once daily intravenous 10 mg/kg P5P for four days, urinary excretion and renal clearance (Example Four)
# Type: in vivo, human
# Stated conditions: human, urine and plasma, iv, 10 mg/kg, P5P 10 mg/kg iv once daily, 4 days; Day 4; PA; mean; read-out: CLR, renal clearance (converted)
Measured quantity: CL renal (mL/min)
Write it as a number; the unit mL/min goes unstated.

Would you mind telling me what CL renal value was observed for `Cc1ncc(CO)c(C(=O)O)c1O` ?
179

====

# Test summary: Single intravenous dose escalation of P5P, plasma pharmacokinetics (Examples Two and Three)
# Format: in vivo, human
# Stated conditions: both sexes, human, plasma, iv, 10 mg/kg, Group 3, P5P 10 mg/kg single iv; plasma PAL; mean
Measured quantity: MRT (h)
Please state the figure in h; there is no need to write the unit.

Bench note: what MRT did `Cc1ncc(CO)c(C=O)c1O` show?
3.68
